Endpoint: IC50. System: acetylcholinesterase (AChE) (Homo sapiens, UniProt P22303). Items follow.
Sequence (P22303 32-614, species assumed): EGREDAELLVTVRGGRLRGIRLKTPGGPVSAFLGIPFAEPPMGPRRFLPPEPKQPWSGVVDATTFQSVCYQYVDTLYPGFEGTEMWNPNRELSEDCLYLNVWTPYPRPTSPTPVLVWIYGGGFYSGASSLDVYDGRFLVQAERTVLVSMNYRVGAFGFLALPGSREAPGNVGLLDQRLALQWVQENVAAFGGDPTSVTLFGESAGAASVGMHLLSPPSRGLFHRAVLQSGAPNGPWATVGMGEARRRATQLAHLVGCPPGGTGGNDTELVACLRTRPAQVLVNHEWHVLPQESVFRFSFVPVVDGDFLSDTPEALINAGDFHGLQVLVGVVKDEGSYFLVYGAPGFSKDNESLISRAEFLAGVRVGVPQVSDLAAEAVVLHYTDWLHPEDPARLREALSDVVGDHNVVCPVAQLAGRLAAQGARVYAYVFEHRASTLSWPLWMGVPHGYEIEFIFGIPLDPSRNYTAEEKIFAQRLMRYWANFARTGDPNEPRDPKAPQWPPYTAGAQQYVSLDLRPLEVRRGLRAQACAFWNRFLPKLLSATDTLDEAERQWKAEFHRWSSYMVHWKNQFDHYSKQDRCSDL
Number in µM, nothing else.

Example entries begin here.
>>> recorded_result("CC1OC(=O)c2c(O)cccc2C1O (stereo not shown) [4,8-dihydroxy-3-methylbenzopyran-1-one]")
598
>>> recorded_result("COC1=CC2(C)OC(=O)c3c(O)cc(OC)cc3C2=C(O)C1=O (stereo not shown) [Botrallin (4)]")
326

Query: GET /values?readout=IC50&item= COc1cc(O)c2c(=O)oc3cc(O)c(Cl)c(C)c3c2c1 [Palmariol B (1)]
Reply: 376

Query: GET /values?readout=IC50&item= COc1cc(O)c2c(=O)oc3cc(O)cc(C)c3c2c1 [Alternariol 9-methyl ether (3)]
Reply: 498

Recorded values, source paper PMC6268909.
